# tested.target: ACE2 (Homo sapiens, UniProt Q9BYF1)
# Sequence (Q9BYF1 18-805, species assumed): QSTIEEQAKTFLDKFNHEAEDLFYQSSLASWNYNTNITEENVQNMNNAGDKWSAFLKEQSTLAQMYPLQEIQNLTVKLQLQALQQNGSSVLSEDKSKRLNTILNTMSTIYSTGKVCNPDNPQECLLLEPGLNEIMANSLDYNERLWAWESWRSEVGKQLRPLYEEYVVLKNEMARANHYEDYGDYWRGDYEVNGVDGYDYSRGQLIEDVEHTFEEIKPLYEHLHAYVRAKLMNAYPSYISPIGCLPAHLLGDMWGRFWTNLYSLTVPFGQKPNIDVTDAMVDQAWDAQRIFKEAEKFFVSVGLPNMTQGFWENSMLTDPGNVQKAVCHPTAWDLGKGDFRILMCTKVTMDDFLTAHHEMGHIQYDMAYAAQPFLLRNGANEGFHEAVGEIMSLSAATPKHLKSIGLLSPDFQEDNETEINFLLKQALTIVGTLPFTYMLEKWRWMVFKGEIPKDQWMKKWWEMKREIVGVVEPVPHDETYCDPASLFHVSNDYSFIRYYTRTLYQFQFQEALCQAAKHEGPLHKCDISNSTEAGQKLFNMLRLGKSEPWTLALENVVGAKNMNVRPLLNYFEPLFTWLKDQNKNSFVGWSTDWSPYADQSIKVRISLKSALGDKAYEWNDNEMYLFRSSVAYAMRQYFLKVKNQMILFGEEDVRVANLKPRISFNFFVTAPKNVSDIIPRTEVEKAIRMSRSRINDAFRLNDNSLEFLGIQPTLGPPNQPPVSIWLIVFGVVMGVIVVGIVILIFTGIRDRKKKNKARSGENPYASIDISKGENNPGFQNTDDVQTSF
# test: ACE2 quenched fluorescence substrate (QFS) inhibition assay
# Type: biochemical
# condition.details: read-out: ACE2 inhibition of terminally modified IHPF analogs, 10 μM (Table 3, in brackets); peptide 10 μM; 50 uM QFS, 1 M NaCl, 100 mM Tris-Cl pH 6.5, 37 °C, 1 h
Peptide text beside a SMILES is read from it.
reported.endpoint: inhibition at 10 µM (%)
Enter your answer as a number in %; do not include the unit.

O=C(O)[C@H](Cc1ccccc1)NC(=O)[C@@H]1CCCN1C(=O)[C@H](Cc1c[nH]cn1)NC(=O)[C@@H]1CCCN1 [PHPF] (H-PHPF-OH) | 20
CC(=O)N[C@H](C(=O)N[C@@H](Cc1c[nH]cn1)C(=O)N[C@H](C(=O)N[C@@H](Cc1ccccc1)C(N)=O)C(C)C)C(C)C [N-acetylated/C-amidated VHVF] (Ac-VHVF-NH2) | 4
CC(C)[C@H](N)C(=O)N[C@@H](Cc1c[nH]cn1)C(=O)N[C@H](C(=O)N[C@@H](Cc1ccccc1)C(=O)O)C(C)C [VHVF] (H-VHVF-OH) | 37

Attention now turns to another entry.
Recorded inhibition at 10 µM for CC(C)[C@H](NC(=O)[C@H](Cc1c[nH]cn1)NC(=O)[C@@H]1CCCN1)C(=O)N[C@@H](Cc1ccccc1)C(=O)O [PHVF] (H-PHVF-OH) , please? 49

====

# Tested on: AT2R
# test: Whole cell competition binding with [125I]-Ang II, AT2R-transfected HEK-293 cells
# condition.details: relative binding, displacement of 125I-Ang II in AT2R-transfected HEK-293 cells; 100 nM (Table 6)
Listed next: entries and their corresponding AT2R binding (%).
Enter your answer as a number in %; do not include the unit.

For orientation, consider the following solved cases.
DRVYVYβPF | 75
DRVYVYPβF | 25
DRVYIYPβF | 25

Attention now turns to another entry.
Recorded AT2R binding (%) for `DRVYIYβPF` , please? 80

====

# tested.target: ACE2 (Homo sapiens)
# test: ACE2 quenched fluorescence substrate (QFS) inhibition assay
# Assay type: biochemical
# condition.details: read-out: ACE2 inhibition of terminally modified IHPF analogs, 100 μM (Table 3); peptide 100 μM; 50 uM QFS, 1 M NaCl, 100 mM Tris-Cl pH 6.5, 37 °C, 1 h
Peptide text beside a SMILES is read from it.
Response key: rule met means inhibition at 100 µM >= 80%; rule not met means inhibition at 100 µM < 80%.

Some solved cases for reference:
CC[C@H](C)[C@H](N)C(=O)N[C@@H](Cc1c[nH]cn1)C(=O)N1CCC[C@H]1C(=O)N[C@@H](Cc1ccccc1)C(N)=O [C-amidated IHPF] (H-IHPF-NH2) | rule not met
CC(=O)N1CCC[C@H]1C(=O)N[C@@H](Cc1c[nH]cn1)C(=O)N[C@H](C(=O)N[C@@H](Cc1ccccc1)C(N)=O)C(C)C [N-acetylated/C-amidated PHVF] (Ac-PHVF-NH2) | rule not met
CC[C@H](C)[C@H](NC(C)=O)C(=O)N[C@@H](Cc1ccc(O)cc1)C(=O)N1CCC[C@H]1C(=O)N[C@@H](Cc1ccccc1)C(N)=O [N-acetylated/C-amidated IYPF] (Ac-IYPF-NH2) | rule not met

Reported inhibition at 100 µM reaches at least 80% for CC[C@H](C)[C@H](NC(C)=O)C(=O)N[C@@H](Cc1ccc(O)cc1)C(=O)N1CCC[C@H]1C(=O)N[C@@H](Cc1ccccc1)C(=O)O [N-acetylated IYPF] (Ac-IYPF-OH) ? rule met

Cool, now CC(=O)N[C@H](C(=O)N[C@@H](Cc1c[nH]cn1)C(=O)N[C@H](C(=O)N[C@@H](Cc1ccccc1)C(=O)O)C(C)C)C(C)C [N-acetylated VHVF] (Ac-VHVF-OH) rule not met

Cool, now CC(=O)N[C@H](C(=O)N[C@@H](Cc1ccc(O)cc1)C(=O)N1CCC[C@H]1C(=O)N[C@@H](Cc1ccccc1)C(=O)O)C(C)C [N-acetylated VYPF] (Ac-VYPF-OH) rule met

Cool, now CC(=O)N1CCC[C@H]1C(=O)N[C@@H](Cc1ccc(O)cc1)C(=O)N[C@H](C(=O)N[C@@H](Cc1ccccc1)C(N)=O)C(C)C [N-acetylated/C-amidated PYVF] (Ac-PYVF-NH2) rule not met

Cool, now CC(C)[C@H](N)C(=O)N[C@@H](Cc1c[nH]cn1)C(=O)N[C@H](C(=O)N[C@@H](Cc1ccccc1)C(=O)O)C(C)C [VHVF] (H-VHVF-OH) rule met

Cool, now CC(=O)N1CCC[C@H]1C(=O)N[C@@H](Cc1c[nH]cn1)C(=O)N[C@H](C(=O)N[C@@H](Cc1ccccc1)C(=O)O)C(C)C [N-acetylated PHVF] (Ac-PHVF-OH) rule not met

Cool, now CC(C)[C@H](N)C(=O)N[C@@H](Cc1c[nH]cn1)C(=O)N[C@H](C(=O)N[C@@H](Cc1ccccc1)C(N)=O)C(C)C [C-amidated VHVF] (H-VHVF-NH2) rule met

Cool, now CC(C)[C@H](NC(=O)[C@H](Cc1c[nH]cn1)NC(=O)[C@@H]1CCCN1)C(=O)N[C@@H](Cc1ccccc1)C(=O)O [PHVF] (H-PHVF-OH) rule met
